target: TsGAR-3 (Trichinella spiralis, UniProt E5S5F5); test: Aequorin calcium mobilization agonist assay in CHO-K1 cells expressing TsGAR-3; format: cell-based; details: agonist; without Gα15(16)
Sequence (E5S5F5 entry or part of it): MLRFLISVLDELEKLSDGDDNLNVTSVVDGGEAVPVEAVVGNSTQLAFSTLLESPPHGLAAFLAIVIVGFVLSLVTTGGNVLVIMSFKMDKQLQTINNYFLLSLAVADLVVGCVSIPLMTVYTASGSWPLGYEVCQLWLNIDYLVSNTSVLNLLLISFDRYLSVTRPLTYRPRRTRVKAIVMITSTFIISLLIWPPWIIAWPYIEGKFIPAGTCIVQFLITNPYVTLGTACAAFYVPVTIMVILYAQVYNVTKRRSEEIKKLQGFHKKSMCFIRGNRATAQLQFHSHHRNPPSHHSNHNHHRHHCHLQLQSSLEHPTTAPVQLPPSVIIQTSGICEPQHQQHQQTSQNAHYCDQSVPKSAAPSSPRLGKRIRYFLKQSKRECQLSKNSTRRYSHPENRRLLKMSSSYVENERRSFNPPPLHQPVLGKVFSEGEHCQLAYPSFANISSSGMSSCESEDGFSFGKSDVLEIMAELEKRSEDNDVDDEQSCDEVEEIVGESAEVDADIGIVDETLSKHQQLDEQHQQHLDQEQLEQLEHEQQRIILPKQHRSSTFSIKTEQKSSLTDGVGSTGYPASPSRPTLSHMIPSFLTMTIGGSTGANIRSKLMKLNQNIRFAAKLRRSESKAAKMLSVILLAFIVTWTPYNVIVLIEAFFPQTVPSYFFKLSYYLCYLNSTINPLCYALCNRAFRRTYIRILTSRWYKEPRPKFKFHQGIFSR
Where a name gives a salt, the structure may show the parent alone.
measured.property: nH (Hill coefficient), agonist, TsGAR-3
I'd appreciate a reply containing only the number, no unit.

Example entries begin here.
C[C@@H]1O[C@H](C[N+](C)(C)C)C[C@H]1O [Muscarine, (+)-muscarine chloride] :: 0.7106
C[N+](C)(C)CCOC(N)=O [Carbachol, carbamoylcholine chloride] :: 0.9117
CC(C[N+](C)(C)C)OC(N)=O (centres unmarked) [Bethanechol, bethanechol chloride] :: 1.390
COC(=O)C1=CCCN(C)C1 [Arecoline, arecoline hydrobromide] :: 1.199

GET /values?readout=nH (Hill coefficient), agonist, TsGAR-3&item= CC(=O)OCC[N+](C)(C)C [Acetylcholine, acetylcholine chloride]
0.7319

----------
Listed here: items and their measured EC50.
Target: TsGAR-3 (Trichinella spiralis)
Assay: Aequorin calcium mobilization agonist assay in CHO-K1 cells expressing TsGAR-3
Excerpt: T. spiralis GARs were heterologously expressed in CHO–K1 cells (Sigma) along with the aequorin reporter—with or without the wild-type human G protein alpha 15 subunit (Gα15(16)) (cDNA Resource Center, Bloomsburg University of Pennsylvania)—to observe activation of the receptor by monitoring bioluminescence triggered by the mobilization of intracellular calcium ([Offermanns and Simon, 1995]; [Park et al., 2002]). […]
Counter-ions that a name gives are not always drawn.
Kindly answer with a numeric value in µM, unit omitted.

C[C@@H]1O[C@H](C[N+](C)(C)C)C[C@H]1O [Muscarine, (+)-muscarine chloride] :: 2.5

What value of EC50 has been reported for the following molecule? COC(=O)C1=CCCN(C)C1 [Arecoline, arecoline hydrobromide]
0.457

Would you kindly repeat that for C[N+](C)(C)CCOC(N)=O [Carbachol, carbamoylcholine chloride] ?
1.93

Then CC(=O)OCC[N+](C)(C)C [Acetylcholine, acetylcholine chloride] ?
0.4

----------
target: TsGAR-1 (Trichinella spiralis); experiment: Aequorin calcium mobilization agonist assay in CHO-K1 cells expressing TsGAR-1; assay type: cell-based; conditions: co-expressed with Gα15(16)
measured.property: agonist activity on TsGAR-1 (in words)

C[C@@H]1O[C@H](C[N+](C)(C)C)C[C@H]1O [Muscarine, (+)-muscarine chloride] :: no

----------
target: TsGAR-1 (Trichinella spiralis); test: Aequorin antagonist assay (block of 10 μM ACh response) in CHO-K1 cells expressing TsGAR-1; assay type: cell-based; conditions: antagonist vs 10 μM ACh; co-expressed with Gα15(16); read-out: IC50 ± SE (nM), TsGAR-1
Structures can show the parent of a compound that is named as a salt.
measured.property: IC50

Name the reported IC50 value associated with the molecule CCCOC(C(=O)OC1CCN(C)CC1)(c1ccccc1)c1ccccc1 [Propiverine, propiverine hydrochloride]
> 10000 nM

----------
The following compounds are shown together with reported EC50 values.
target: TsGAR-2 (Trichinella spiralis, UniProt E5SAZ1); experiment: Aequorin calcium mobilization agonist assay in CHO-K1 cells expressing TsGAR-2; format: cell-based
Sequence (E5SAZ1 entry or part of it): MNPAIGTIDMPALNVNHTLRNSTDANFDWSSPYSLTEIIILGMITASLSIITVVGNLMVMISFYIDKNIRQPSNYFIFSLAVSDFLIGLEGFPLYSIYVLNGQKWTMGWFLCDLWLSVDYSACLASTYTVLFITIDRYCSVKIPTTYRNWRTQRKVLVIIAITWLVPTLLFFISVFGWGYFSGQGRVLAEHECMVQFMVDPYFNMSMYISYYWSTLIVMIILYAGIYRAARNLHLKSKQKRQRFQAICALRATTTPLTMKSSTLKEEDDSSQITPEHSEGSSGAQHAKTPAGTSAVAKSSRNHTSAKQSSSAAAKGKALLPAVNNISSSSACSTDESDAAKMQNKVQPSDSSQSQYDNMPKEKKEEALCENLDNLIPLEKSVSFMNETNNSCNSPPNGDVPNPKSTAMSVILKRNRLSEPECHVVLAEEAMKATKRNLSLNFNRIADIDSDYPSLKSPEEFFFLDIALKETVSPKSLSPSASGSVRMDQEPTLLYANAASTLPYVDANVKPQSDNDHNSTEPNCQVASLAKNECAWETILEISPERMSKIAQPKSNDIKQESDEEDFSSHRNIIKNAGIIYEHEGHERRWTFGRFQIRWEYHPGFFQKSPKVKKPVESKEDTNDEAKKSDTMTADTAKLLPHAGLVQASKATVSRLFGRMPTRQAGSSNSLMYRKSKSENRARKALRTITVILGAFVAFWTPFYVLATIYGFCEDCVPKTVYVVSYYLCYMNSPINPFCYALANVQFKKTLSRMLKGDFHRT

# annotated cases, reported EC50 shown
CC(C[N+](C)(C)C)OC(N)=O (stereo not drawn) [Bethanechol, bethanechol chloride] :: > 10 µM
C[N+](C)(C)CCOC(N)=O [Carbachol, carbamoylcholine chloride] :: 2.67 µM

Form field - read-out: EC50; system: TsGAR-2 (Trichinella spiralis, UniProt E5SAZ1); submitted item: C[C@@H]1O[C@H](C[N+](C)(C)C)C[C@H]1O [Muscarine, (+)-muscarine chloride]
> 10 µM

----------
target: TsGAR-2 (Trichinella spiralis, UniProt E5SAZ1); experiment: Aequorin calcium mobilization agonist assay in CHO-K1 cells expressing TsGAR-2; assay type: cell-based; conditions: agonist; CHO cells, co-expressed with Gα15(16); SE of three biological replications; read-out: EC50 ± SE (nM), TsGAR-2
measured.property: EC50 (nM)
Could you give me the number in nM? Just the number is fine.

EC50 lookup needed for CC(=O)OCC[N+](C)(C)C [Acetylcholine, acetylcholine chloride] , thanks.
14.7

----------
target: TsGAR-1 (Trichinella spiralis, UniProt A0A0V1C1R2); test: Aequorin calcium mobilization agonist assay in CHO-K1 cells expressing TsGAR-1; type: cell-based
Sequence (A0A0V1C1R2 entry or part of it): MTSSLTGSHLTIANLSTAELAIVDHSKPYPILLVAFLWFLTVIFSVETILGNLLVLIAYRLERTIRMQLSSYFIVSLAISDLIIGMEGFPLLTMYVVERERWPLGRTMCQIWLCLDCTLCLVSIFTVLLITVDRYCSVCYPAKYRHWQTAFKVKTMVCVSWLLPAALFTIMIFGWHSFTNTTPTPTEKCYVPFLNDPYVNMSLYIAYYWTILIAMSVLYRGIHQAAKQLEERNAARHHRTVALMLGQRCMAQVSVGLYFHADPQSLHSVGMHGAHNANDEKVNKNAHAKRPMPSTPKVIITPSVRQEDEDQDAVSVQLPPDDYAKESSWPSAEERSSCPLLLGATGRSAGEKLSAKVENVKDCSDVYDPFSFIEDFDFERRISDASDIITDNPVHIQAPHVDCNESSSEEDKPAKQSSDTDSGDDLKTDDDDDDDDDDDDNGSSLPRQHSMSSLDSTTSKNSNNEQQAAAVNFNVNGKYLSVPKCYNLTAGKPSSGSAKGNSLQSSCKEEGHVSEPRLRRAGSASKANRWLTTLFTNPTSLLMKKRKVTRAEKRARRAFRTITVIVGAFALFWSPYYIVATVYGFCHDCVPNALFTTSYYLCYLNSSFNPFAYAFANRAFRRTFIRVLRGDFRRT
Where a name gives a salt, the structure may show the parent alone.
measured.property: EC50 (µM)
Report the figure in µM without appending any unit label.

COC(=O)C1=CCCN(C)C1 [Arecoline, arecoline hydrobromide] :: 4.63

Now for another entry.
Recorded EC50 for C[N+](C)(C)CCOC(N)=O [Carbachol, carbamoylcholine chloride] , please?
2.05

----------
molecular target: UniProt E5SAZ1; test: Aequorin antagonist assay (block of 10 μM ACh response) in CHO-K1 cells expressing TsGAR-2; format: cell-based; settings: antagonist vs 10 μM ACh; co-expressed with Gα15(16); read-out: IC50 ± SE (nM), TsGAR-2
Structures can show the parent of a compound that is named as a salt.
measured.property: IC50

Return reported IC50; argument: CCCOC(C(=O)OC1CCN(C)CC1)(c1ccccc1)c1ccccc1 [Propiverine, propiverine hydrochloride]
> 10000 nM

----------
Biological target: TsGAR-2 (Trichinella spiralis)
Assay: Aequorin calcium mobilization agonist assay in CHO-K1 cells expressing TsGAR-2
Format: cell-based
Conditions: agonist; co-expressed with Gα15(16)
Excerpt: T. spiralis GARs were heterologously expressed in CHO–K1 cells (Sigma) along with the aequorin reporter—with or without the wild-type human G protein alpha 15 subunit (Gα15(16)) (cDNA Resource Center, Bloomsburg University of Pennsylvania)—to observe activation of the receptor by monitoring bioluminescence triggered by the mobilization of intracellular calcium ([Offermanns and Simon, 1995]; [Park et al., 2002]). […]
measured.property: nH (Hill coefficient), agonist, TsGAR-2
Keep the answer to the number alone.

C[C@@H]1O[C@H](C[N+](C)(C)C)C[C@H]1O [Muscarine, (+)-muscarine chloride] :: 0.8666
CC(=O)OCC[N+](C)(C)C [Acetylcholine, acetylcholine chloride] :: 0.5883
CC(C[N+](C)(C)C)OC(N)=O (stereo not shown) [Bethanechol, bethanechol chloride] :: 0.8738

Now let's try a different one.
Find nH (Hill coefficient), agonist, TsGAR-2 (TsGAR-2 (Trichinella spiralis)) for the entry C[N+](C)(C)CCOC(N)=O [Carbachol, carbamoylcholine chloride]
0.9531

----------
target: TsGAR-1 (Trichinella spiralis, UniProt A0A0V1C1R2); assay: Aequorin calcium mobilization agonist assay in CHO-K1 cells expressing TsGAR-1; assay type: cell-based; conditions: agonist; co-expressed with Gα15(16)
Where a name gives a salt, the structure may show the parent alone.
measured.property: nH (Hill coefficient), agonist, TsGAR-1

For orientation, consider the following solved cases.
CC(=O)OCC[N+](C)(C)C [Acetylcholine, acetylcholine chloride] :: 0.8621
CC(C[N+](C)(C)C)OC(N)=O (stereo not shown) [Bethanechol, bethanechol chloride] :: 0.9289

Which nH (Hill coefficient), agonist, TsGAR-1 reading was recorded for the molecule C[N+](C)(C)CCOC(N)=O [Carbachol, carbamoylcholine chloride] ?
0.8693

Now the molecule COC(=O)C1=CCCN(C)C1 [Arecoline, arecoline hydrobromide]
1.054
